- Species on record: Cavia porcellus
- Test method notes: Concentration of compound required for evaluating efficacy in guinea pig ileum (GPI)
- Format: functional, organism-based
pEC50: −log10 of the molar value.
Respond with 1 for pEC50 values of 8 and above, -1 for values below.

INSERT INTO assay_data (smiles_code, class_assignment) VALUES
  ('CCCC[C@H](N)C(=O)NNC(=O)[C@H](Cc1ccccc1)NC(=O)CNC(=O)[C@@H](C)NC(=O)[C@@H](N)Cc1ccc(O)cc1', -1),
  ('C[C@@H](NC(=O)[C@@H](N)Cc1ccc(O)cc1)C(=O)NCC(=O)N[C@@H](Cc1ccccc1)C(=O)NNC(=O)[C@H](N)Cc1ccccc1', 1);

---

Measured IC50 accompanies every entry in the list below.
- Test system: Mu-type opioid receptor (Homo sapiens)
- Sequence (P35372 whole entry): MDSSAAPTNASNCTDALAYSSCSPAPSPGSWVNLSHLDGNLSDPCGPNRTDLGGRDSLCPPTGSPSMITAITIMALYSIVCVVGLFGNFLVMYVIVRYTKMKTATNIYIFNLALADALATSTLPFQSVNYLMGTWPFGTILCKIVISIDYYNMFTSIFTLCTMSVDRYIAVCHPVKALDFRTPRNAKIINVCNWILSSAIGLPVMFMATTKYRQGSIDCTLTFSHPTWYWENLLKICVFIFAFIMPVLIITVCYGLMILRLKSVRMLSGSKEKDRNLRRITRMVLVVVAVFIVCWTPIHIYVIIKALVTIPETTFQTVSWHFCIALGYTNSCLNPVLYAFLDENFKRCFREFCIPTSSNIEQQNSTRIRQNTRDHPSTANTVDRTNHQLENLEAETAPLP
- Test method notes: In vitro binding affinity towards mu opioid receptors was determined using [3H][p-Cl-Phe]- 4] DPDPE or [3H]deltorphin II
Outcome measure: IC50 (nM)

INSERT INTO results (smiles_code, test_value) VALUES
  ('C[C@@H](NC(=O)[C@@H](N)Cc1ccc(O)cc1)C(=O)NCC(=O)N[C@@H](Cc1ccccc1)C(=O)NNC(=O)[C@@H](N)Cc1ccccc1', 0.88),
  ('C[C@@H](NC(=O)[C@@H](N)Cc1ccc(O)cc1)C(=O)NCC(=O)N[C@@H](Cc1ccccc1)C(=O)NN', 4.7),
  ('C[C@@H](NC(=O)[C@@H](N)Cc1ccc(O)cc1)C(=O)NCC(=O)N[C@@H](Cc1c[nH]c2ccccc12)C(=O)NNC(=O)[C@H](N)Cc1ccccc1', 8.3);

---

Measured pIC50 accompanies every entry in the list below.
- Test system: Delta-type opioid receptor (Homo sapiens)
- Sequence (P41143 whole entry): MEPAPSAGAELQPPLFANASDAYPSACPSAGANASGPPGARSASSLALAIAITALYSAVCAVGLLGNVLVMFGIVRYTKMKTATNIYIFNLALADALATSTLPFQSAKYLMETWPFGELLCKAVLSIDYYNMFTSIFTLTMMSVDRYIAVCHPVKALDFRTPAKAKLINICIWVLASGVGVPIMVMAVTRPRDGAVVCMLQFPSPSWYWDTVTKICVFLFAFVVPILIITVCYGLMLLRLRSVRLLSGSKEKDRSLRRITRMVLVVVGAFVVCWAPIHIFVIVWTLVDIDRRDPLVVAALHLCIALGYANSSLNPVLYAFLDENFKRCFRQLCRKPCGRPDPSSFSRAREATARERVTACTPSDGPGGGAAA
- Test method notes: In vitro binding affinity towards Opioid receptor delta 1 was determined using […]
pIC50: −log10 of the molar value.
Outcome measure: pIC50

INSERT INTO measurements (smiles_code, test_value) VALUES
  ('C[C@@H](NC(=O)[C@@H](N)Cc1ccc(O)cc1)C(=O)NCC(=O)N[C@@H](Cc1ccccc1)C(=O)NN', 6.64),
  ('C[C@@H](NC(=O)[C@@H](N)Cc1ccc(O)cc1)C(=O)NCC(=O)N[C@@H](Cc1c[nH]c2ccccc12)C(=O)NNC(=O)[C@H](N)Cc1ccccc1', 7.34),
  ('C[C@@H](NC(=O)[C@@H](N)Cc1ccc(O)cc1)C(=O)NCC(=O)N[C@@H](Cc1ccccc1)C(=O)NNC(=O)[C@H](N)Cc1ccc(O)cc1', 7.80),
  ('C[C@@H](NC(=O)[C@@H](N)Cc1ccc(O)cc1)C(=O)NCC(=O)N[C@@H](Cc1ccccc1)C(=O)NNC(=O)[C@@H](N)Cc1ccccc1', 7.52),
  ('CCCC[C@H](N)C(=O)NNC(=O)[C@H](Cc1ccccc1)NC(=O)CNC(=O)[C@@H](C)NC(=O)[C@@H](N)Cc1ccc(O)cc1', 7.68),
  ('C[C@@H](NC(=O)[C@@H](N)Cc1ccc(O)cc1)C(=O)NCC(=O)N[C@@H](Cc1ccccc1)C(=O)NNC(=O)[C@H](N)Cc1c[nH]c2ccccc12', 7.54),
  ('C[C@@H](NC(=O)[C@@H](N)Cc1ccc(O)cc1)C(=O)NCC(=O)N[C@@H](Cc1ccccc1)C(=O)NNC(=O)[C@H](N)Cc1ccccc1', 7.82),
  ('CCCC[C@@H](N)C(=O)NNC(=O)[C@H](Cc1ccccc1)NC(=O)CNC(=O)[C@@H](C)NC(=O)[C@@H](N)Cc1ccc(O)cc1', 7.15);

---

- Species: Cavia porcellus
- Test method notes: Concentration of compound required for evaluating efficacy in guinea pig ileum (GPI)
- Type: functional, organism-based
pEC50: −log10 of the molar value.
Outcome measure: pEC50

INSERT INTO assay_data (smiles_code, outcome_measure, test_value) VALUES
  ('CCCC[C@@H](N)C(=O)NNC(=O)[C@H](Cc1ccccc1)NC(=O)CNC(=O)[C@@H](C)NC(=O)[C@@H](N)Cc1ccc(O)cc1', 'pEC50', 8.28),
  ('C[C@@H](NC(=O)[C@@H](N)Cc1ccc(O)cc1)C(=O)NCC(=O)N[C@@H](Cc1c[nH]c2ccccc12)C(=O)NNC(=O)[C@H](N)Cc1ccccc1', 'pEC50', 7.59),
  ('C[C@@H](NC(=O)[C@@H](N)Cc1ccc(O)cc1)C(=O)NCC(=O)N[C@@H](Cc1ccccc1)C(=O)NN', 'pEC50', 7.05);

---

- Test system: UniProtKB P35372
- Test method notes: In vitro binding affinity towards mu opioid receptors was determined using [3H][p-Cl-Phe]- 4] DPDPE or [3H]deltorphin II
pIC50: −log10 of the molar value.
Outcome measure: pIC50

INSERT INTO assay_data (smiles_code, test_system, test_value) VALUES
  ('C[C@@H](NC(=O)[C@@H](N)Cc1ccc(O)cc1)C(=O)NCC(=O)N[C@@H](Cc1ccccc1)C(=O)NNC(=O)[C@H](Cc1ccccc1)NC(=O)CNC(=O)[C@@H](C)NC(=O)[C@@H](N)Cc1ccc(O)cc1', 'UniProtKB P35372', 8.85),
  ('CCCC[C@H](N)C(=O)NNC(=O)[C@H](Cc1ccccc1)NC(=O)CNC(=O)[C@@H](C)NC(=O)[C@@H](N)Cc1ccc(O)cc1', 'UniProtKB P35372', 8.89),
  ('C[C@@H](NC(=O)[C@@H](N)Cc1ccc(O)cc1)C(=O)NCC(=O)N[C@@H](Cc1ccccc1)C(=O)NNC(=O)[C@H](N)Cc1c[nH]c2ccccc12', 'UniProtKB P35372', 8.70),
  ('CCCC[C@@H](N)C(=O)NNC(=O)[C@H](Cc1ccccc1)NC(=O)CNC(=O)[C@@H](C)NC(=O)[C@@H](N)Cc1ccc(O)cc1', 'UniProtKB P35372', 8.23),
  ('C[C@@H](NC(=O)[C@@H](N)Cc1ccc(O)cc1)C(=O)NCC(=O)N[C@@H](Cc1ccccc1)C(=O)NNC(=O)[C@H](N)Cc1ccc(O)cc1', 'UniProtKB P35372', 8.80),
  ('C[C@@H](NC(=O)[C@@H](N)Cc1ccc(O)cc1)C(=O)NCC(=O)N[C@@H](Cc1ccccc1)C(=O)NNC(=O)[C@H](N)Cc1ccccc1', 'UniProtKB P35372', 9.13);

---

- Species on record: Mus musculus
- Test method notes: Concentration of compound required for evaluating efficacy in mouse vas deferens (MVD)
- Type: functional, organism-based
pEC50: −log10 of the molar value.
Measured pEC50 accompanies every entry in the list below.
Outcome measure: pEC50

INSERT INTO assay_data (smiles_code, outcome_measure, test_value) VALUES
  ('C[C@@H](NC(=O)[C@@H](N)Cc1ccc(O)cc1)C(=O)NCC(=O)N[C@@H](Cc1ccccc1)C(=O)NNC(=O)[C@@H](N)Cc1ccccc1', 'pEC50', 7.49),
  ('C[C@@H](NC(=O)[C@@H](N)Cc1ccc(O)cc1)C(=O)NCC(=O)N[C@@H](Cc1ccccc1)C(=O)NNC(=O)[C@H](Cc1ccccc1)NC(=O)CNC(=O)[C@@H](C)NC(=O)[C@@H](N)Cc1ccc(O)cc1', 'pEC50', 7.57),
  ('C[C@@H](NC(=O)[C@@H](N)Cc1ccc(O)cc1)C(=O)NCC(=O)N[C@@H](Cc1ccccc1)C(=O)NNC(=O)[C@H](N)Cc1c[nH]c2ccccc12', 'pEC50', 7.82),
  ('CCCC[C@@H](N)C(=O)NNC(=O)[C@H](Cc1ccccc1)NC(=O)CNC(=O)[C@@H](C)NC(=O)[C@@H](N)Cc1ccc(O)cc1', 'pEC50', 7.02),
  ('C[C@@H](NC(=O)[C@@H](N)Cc1ccc(O)cc1)C(=O)NCC(=O)N[C@@H](Cc1c[nH]c2ccccc12)C(=O)NNC(=O)[C@H](N)Cc1ccccc1', 'pEC50', 6.89),
  ('C[C@@H](NC(=O)[C@@H](N)Cc1ccc(O)cc1)C(=O)NCC(=O)N[C@@H](Cc1ccccc1)C(=O)NN', 'pEC50', 6.54),
  ('C[C@@H](NC(=O)[C@@H](N)Cc1ccc(O)cc1)C(=O)NCC(=O)N[C@@H](Cc1ccccc1)C(=O)NNC(=O)[C@H](N)Cc1ccc(O)cc1', 'pEC50', 7.35),
  ('C[C@@H](NC(=O)[C@@H](N)Cc1ccc(O)cc1)C(=O)NCC(=O)N[C@@H](Cc1ccccc1)C(=O)NNC(=O)[C@H](N)Cc1ccccc1', 'pEC50', 7.57),
  ('CCCC[C@H](N)C(=O)NNC(=O)[C@H](Cc1ccccc1)NC(=O)CNC(=O)[C@@H](C)NC(=O)[C@@H](N)Cc1ccc(O)cc1', 'pEC50', 7.70);

---

Measured EC50 accompanies every entry in the list below.
- Organism: Cavia porcellus
- Test method notes: Concentration of compound required for evaluating efficacy in guinea pig ileum (GPI)
- Type: functional, organism-based
Outcome measure: EC50 (nM)

INSERT INTO assay_data (smiles_code, display_unit, test_value) VALUES
  ('C[C@@H](NC(=O)[C@@H](N)Cc1ccc(O)cc1)C(=O)NCC(=O)N[C@@H](Cc1ccccc1)C(=O)NNC(=O)[C@H](N)Cc1c[nH]c2ccccc12', 'nM', 7.1),
  ('C[C@@H](NC(=O)[C@@H](N)Cc1ccc(O)cc1)C(=O)NCC(=O)N[C@@H](Cc1ccccc1)C(=O)NNC(=O)[C@H](N)Cc1ccc(O)cc1', 'nM', 15),
  ('C[C@@H](NC(=O)[C@@H](N)Cc1ccc(O)cc1)C(=O)NCC(=O)N[C@@H](Cc1ccccc1)C(=O)NNC(=O)[C@@H](N)Cc1ccccc1', 'nM', 9.8),
  ('C[C@@H](NC(=O)[C@@H](N)Cc1ccc(O)cc1)C(=O)NCC(=O)N[C@@H](Cc1ccccc1)C(=O)NNC(=O)[C@H](Cc1ccccc1)NC(=O)CNC(=O)[C@@H](C)NC(=O)[C@@H](N)Cc1ccc(O)cc1', 'nM', 8.8);
